Tested on: Spontaneously hypertensive rat
ASSAY OVERVIEW: Cardiovascular activities: systolic blood pressure and heart rate in conscious spontaneously hypertensive rats (p.o.)
Type: in vivo
COND: 3.0 mg/kg (p.o.), maximum variation from control
The compounds listed here are annotated with their Heart rate, Δ%.

{"COMPOUND": "Cc1cc[n+]([O-])c(CON2CCNC2=Nc2c(Cl)cccc2Cl)c1", "Heart rate, Δ%": "-7.5%"}
{"COMPOUND": "[O-][n+]1ccccc1CON1CCNC1=Nc1c(Cl)cccc1Cl", "Heart rate, Δ%": "+3.3%"}
{"COMPOUND": "[O-][n+]1ccccc1CON1CCNC1=Nc1cccc(Cl)c1Cl", "Heart rate, Δ%": "-8.4%"}
{"COMPOUND": "CN(C1=NCCN1OCc1cccc[n+]1[O-])c1c(Cl)cccc1Cl", "Heart rate, Δ%": "-5.8%"}
{"COMPOUND": "CC(ON1CCNC1=Nc1c(Cl)cccc1Cl)c1cc[n+]([O-])cc1 (stereo not drawn)", "Heart rate, Δ%": "+4.0%"}
{"COMPOUND": "Cc1ccc(CON2CCNC2=Nc2c(Cl)cccc2Cl)[n+]([O-])c1", "Heart rate, Δ%": "-5.5%"}
